B1: MIA2 (parent)
chain: DMVSNIELPTRIHEEVYFEPSSSK

- Variants of: B1
- experiment.notes: protein stability index of a GFP-peptide fusion (GPS, HEK-293T) (PSI 1-6); higher = more stable;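 note: lentivirally expressed fusions sorted by FACS into six bins by GFP to DsRed ratio, PSI derived from sequencing read proportions per bin multiplied by bin number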
- stated.conditions: c terminus: a fixed tail appended
Note to self: values exactly at 4 are yes (1). So protein stability index at or above 4 is yes (1), below is no (0).

DMVSNIELPTRIHWEVYFEPSSSK [E14W]; no (0)
DMVSNIELPTRIHEEVNFEPSSSK [Y17N]; yes (1)
DMVSNIELPTRIHEEVYFEISSSK [P20I]; no (0)
DMVSNIELPTRIHEEVYFEPSDSK [S22D]; yes (1)
DAVSNIELPTRIHEEVYFEPSSSK [M2A]; yes (1)
DMVSNIELPTRIHEEVYFEVSSSK [P20V]; no (0)

Data request: Item DMVSNIELPTRVHEEVYFEPSSSK [I12V] with protein stability index of 4 or above?
Data returned: yes (1)

Data request: Item DMVSNIELPTRIHEEVYFELSSSK [P20L] with protein stability index of 4 or above?
Data returned: no (0)

Data request: Item DMVSNTELPTRIHEEVYFEPSSSK [I6T] with protein stability index of 4 or above?
Data returned: yes (1)

Data request: Item DMVSNIELPTRIHEWVYFEPSSSK [E15W] with protein stability index of 4 or above?
Data returned: no (0)

Data request: Item DMVSNIELPTRIHEEVYFEPSFSK [S22F] with protein stability index of 4 or above?
Data returned: no (0)

Data request: Item DMVSNIELPTRIHEEVYFEPSSSN [K24N] with protein stability index of 4 or above?
Data returned: yes (1)

Data request: Item DMVSNIELWTRIHEEVYFEPSSSK [P9W] with protein stability index of 4 or above?
Data returned: no (0)

Data request: Item DMVSNIELETRIHEEVYFEPSSSK [P9E] with protein stability index of 4 or above?
Data returned: yes (1)

Data request: Item DMVSNIELPTRIHREVYFEPSSSK [E14R] with protein stability index of 4 or above?
Data returned: no (0)

Data request: Item DMVSNIYLPTRIHEEVYFEPSSSK [E7Y] with protein stability index of 4 or above?
Data returned: no (0)

Data request: Item DMVSNIELPTRIHEEVYFRPSSSK [E19R] with protein stability index of 4 or above?
Data returned: no (0)

Data request: Item DMVSNIELPNRIHEEVYFEPSSSK [T10N] with protein stability index of 4 or above?
Data returned: no (0)

Data request: Item DMVSNIELPTRIHEEDYFEPSSSK [V16D] with protein stability index of 4 or above?
Data returned: yes (1)

Data request: Item DMVSHIELPTRIHEEVYFEPSSSK [N5H] with protein stability index of 4 or above?
Data returned: yes (1)

Data request: Item DMVSNIELPTHIHEEVYFEPSSSK [R11H] with protein stability index of 4 or above?
Data returned: no (0)

Data request: Item DMVSNIELPTRIHEEEYFEPSSSK [V16E] with protein stability index of 4 or above?
Data returned: yes (1)

Data request: Item DMVSNCELPTRIHEEVYFEPSSSK [I6C] with protein stability index of 4 or above?
Data returned: yes (1)

Data request: Item DMVSNIELPTRIHEEVMFEPSSSK [Y17M] with protein stability index of 4 or above?
Data returned: no (0)

Data request: Item AMVSNIELPTRIHEEVYFEPSSSK [D1A] with protein stability index of 4 or above?
Data returned: no (0)
